Reference source for all entries: the kinase profiling compilation of Christmann-Franck et al. (2016)

target: PRKCI (human) (UniProt P41743)
Sequence (P41743 whole entry, looked up): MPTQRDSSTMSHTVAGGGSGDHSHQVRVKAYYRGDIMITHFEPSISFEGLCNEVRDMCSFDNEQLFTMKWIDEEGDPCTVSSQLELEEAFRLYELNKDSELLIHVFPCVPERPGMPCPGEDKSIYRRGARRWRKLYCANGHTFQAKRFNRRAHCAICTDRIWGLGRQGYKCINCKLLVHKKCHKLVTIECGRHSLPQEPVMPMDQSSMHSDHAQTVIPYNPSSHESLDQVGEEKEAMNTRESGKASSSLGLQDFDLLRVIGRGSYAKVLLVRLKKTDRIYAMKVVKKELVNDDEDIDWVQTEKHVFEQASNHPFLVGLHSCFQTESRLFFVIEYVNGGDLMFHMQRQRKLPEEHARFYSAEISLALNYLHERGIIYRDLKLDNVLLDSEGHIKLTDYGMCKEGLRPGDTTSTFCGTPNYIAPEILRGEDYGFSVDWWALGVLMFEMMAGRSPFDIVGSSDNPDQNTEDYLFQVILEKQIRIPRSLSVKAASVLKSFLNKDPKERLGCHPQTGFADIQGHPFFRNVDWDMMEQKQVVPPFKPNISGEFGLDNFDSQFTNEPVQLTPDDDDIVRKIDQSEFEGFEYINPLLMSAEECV
Readout Type: Ki

*Q* # value lookup — system PRKCI (human) (UniProt P41743), readout Ki, item O=C1c2ccccc2-c2n[nH]c3cccc1c23
*A* > 5.01 µM

---

molecular target: MAPKAPK5 (human) (UniProt Q8IW41)
Sequence (Q8IW41 whole entry, looked up): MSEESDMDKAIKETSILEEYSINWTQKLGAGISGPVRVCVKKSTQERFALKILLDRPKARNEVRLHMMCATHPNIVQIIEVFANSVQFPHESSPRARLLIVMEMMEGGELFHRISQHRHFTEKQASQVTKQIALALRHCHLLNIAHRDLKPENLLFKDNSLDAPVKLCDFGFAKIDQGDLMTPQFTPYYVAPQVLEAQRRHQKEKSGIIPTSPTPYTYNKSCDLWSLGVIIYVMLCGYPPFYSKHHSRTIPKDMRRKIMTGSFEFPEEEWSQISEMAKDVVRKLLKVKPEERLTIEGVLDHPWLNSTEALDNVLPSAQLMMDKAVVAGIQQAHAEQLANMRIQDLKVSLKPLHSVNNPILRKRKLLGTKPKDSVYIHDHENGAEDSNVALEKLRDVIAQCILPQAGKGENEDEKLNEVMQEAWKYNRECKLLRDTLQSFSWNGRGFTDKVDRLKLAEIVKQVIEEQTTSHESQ
pKi: −log10 of the molar value.
Readout Type: pKi

*Q* Checklist item: pKi tested on MAPKAPK5 (human) (UniProt Q8IW41), entry O=C1c2ccccc2-c2n[nH]c3cccc1c23 , value?
*A* < 5.80

---

biological target: BTK (human)
pKi: −log10 of the molar value.
Readout Type: pKi

*Q* Reported pKi for O=C1c2ccccc2-c2n[nH]c3cccc1c23 : what is it?
*A* < 5.90

---

target: MAPK1 (human) (UniProt P28482)
Sequence (P28482 whole entry, looked up): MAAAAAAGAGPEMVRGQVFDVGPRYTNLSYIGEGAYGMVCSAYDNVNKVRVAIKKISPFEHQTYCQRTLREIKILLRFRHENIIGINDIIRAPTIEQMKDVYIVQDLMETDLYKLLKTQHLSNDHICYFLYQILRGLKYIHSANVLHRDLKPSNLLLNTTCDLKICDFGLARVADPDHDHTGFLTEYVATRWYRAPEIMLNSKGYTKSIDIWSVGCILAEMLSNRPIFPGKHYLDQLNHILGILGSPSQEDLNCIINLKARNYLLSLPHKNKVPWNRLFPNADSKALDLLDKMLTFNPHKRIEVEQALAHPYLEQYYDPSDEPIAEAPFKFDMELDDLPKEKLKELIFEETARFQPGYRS
Readout Type: Ki (µM)
Form entry: value (µM) — number only.

*Q* GET /values?readout=Ki&item= O=C1c2ccccc2-c2n[nH]c3cccc1c23
*A* 5.01

---

molecular target: PRKD2 (human)
Readout Type: Ki (nM)
Just the number please, in nM, no unit attached.

*Q* Tell me the measured Ki of O=C1c2ccccc2-c2n[nH]c3cccc1c23 , please.
*A* 158

---

molecular target: PRKG1 (human) (UniProt Q13976)
Sequence (Q13976 whole entry, looked up): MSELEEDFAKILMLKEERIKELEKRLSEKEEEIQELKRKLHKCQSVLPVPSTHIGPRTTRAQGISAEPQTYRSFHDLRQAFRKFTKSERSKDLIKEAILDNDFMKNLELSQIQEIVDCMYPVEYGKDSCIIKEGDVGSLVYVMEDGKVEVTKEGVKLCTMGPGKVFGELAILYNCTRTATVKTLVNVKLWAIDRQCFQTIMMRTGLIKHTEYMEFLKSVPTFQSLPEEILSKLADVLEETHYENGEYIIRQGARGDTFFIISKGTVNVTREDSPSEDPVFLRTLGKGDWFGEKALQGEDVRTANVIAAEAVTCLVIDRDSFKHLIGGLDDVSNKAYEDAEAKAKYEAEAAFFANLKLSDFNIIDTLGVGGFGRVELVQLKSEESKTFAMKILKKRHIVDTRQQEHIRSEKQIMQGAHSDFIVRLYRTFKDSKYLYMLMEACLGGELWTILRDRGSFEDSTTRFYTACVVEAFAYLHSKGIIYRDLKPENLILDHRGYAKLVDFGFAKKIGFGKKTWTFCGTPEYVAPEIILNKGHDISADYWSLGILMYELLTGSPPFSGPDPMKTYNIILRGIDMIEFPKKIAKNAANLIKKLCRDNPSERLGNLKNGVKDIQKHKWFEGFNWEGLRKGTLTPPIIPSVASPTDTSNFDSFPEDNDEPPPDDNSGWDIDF
Readout Type: Ki

*Q* Sample O=C1c2ccccc2-c2n[nH]c3cccc1c23 — what was its Ki?
*A* > 2 µM

---

target: SGK1 (human)
This listing pairs compounds with measured Ki.

Study these solved cases before continuing.
INSERT INTO assay_data (compound, target_of_assay, readout_type, measurement) VALUES
  ('Cn1cc(C(CN)c2cncc(/C=C/c3ccncc3)c2)c2ccccc21 (stereo unspecified)', 'SGK1 (human)', 'Ki', '> 10 µM'),
  ('O=C1NC(=O)C(c2cnc3ccccn23)=C1c1cn2c3c(cccc13)CN(C(=O)N1CCOCC1)CC2', 'SGK1 (human)', 'Ki', '> 10 µM'),
  ('CC(C)(C(N)=O)n1cc(-c2cnc(N)c3c(-c4ccc(NC(=O)Nc5cccc(F)c5)cc4)csc23)cn1', 'SGK1 (human)', 'Ki', '3.16 µM');

*Q* Find the measured Ki: item Cc1ccc(-c2ccc(NC(=O)Nc3cccc(Br)c3)cc2)c2c(N)n[nH]c12 , target or system SGK1 (human).
*A* 5.01 µM

---

The listing below reports Ki for compounds tested on SGK1 (human) (UniProt O00141).
Sequence (O00141 whole entry, looked up): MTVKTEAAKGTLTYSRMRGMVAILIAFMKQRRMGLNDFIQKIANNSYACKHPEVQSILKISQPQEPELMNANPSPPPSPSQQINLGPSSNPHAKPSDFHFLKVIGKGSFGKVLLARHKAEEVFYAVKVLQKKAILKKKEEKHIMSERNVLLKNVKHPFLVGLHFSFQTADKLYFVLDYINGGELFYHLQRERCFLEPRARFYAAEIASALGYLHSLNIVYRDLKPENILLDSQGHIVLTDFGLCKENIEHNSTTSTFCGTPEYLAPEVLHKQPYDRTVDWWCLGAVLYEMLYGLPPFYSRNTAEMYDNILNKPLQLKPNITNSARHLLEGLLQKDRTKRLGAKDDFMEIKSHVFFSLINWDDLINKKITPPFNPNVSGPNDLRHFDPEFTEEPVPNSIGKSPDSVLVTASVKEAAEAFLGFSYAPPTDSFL

Consider the reported Ki for these compounds:
INSERT INTO assay_data (compound, readout_type, measurement) VALUES
  ('O=C(O)c1ccc(N2C(=O)c3ccccc3C2=O)cc1O', 'Ki', '> 10 µM'),
  ('C/C(=N/NC(=N)N)c1cc(NC(=O)c2cccc(C(=O)Nc3cc(/C(C)=N\NC(=N)N)cc(/C(C)=N/NC(=N)N)c3)c2)cc(/C(C)=N/NC(=N)N)c1', 'Ki', '1.26 µM'),
  ('CN(C)S(=O)(=O)c1ccccc1-c1ccc2c(c1)Nc1ccccc1NC2=O', 'Ki', '> 10 µM'),
  ('Cc1n[nH]c2c1C(c1ccccc1Cl)C(C#N)=C(N)O2 (centres undefined)', 'Ki', '> 10 µM'),
  ('Cc1c(-c2cccc(OCc3ccccc3)c2)c2c(N)ncnc2n1[C@H]1CC[C@@H](N2CCCC2)CC1', 'Ki', '> 10 µM'),
  ('COc1ccc(C(=O)Nc2n[nH]c3ccc(-c4cn(Cc5ccccc5)nn4)cc23)cc1OC', 'Ki', '1 µM'),
  ('CCOC(=O)c1cccc2[nH]c(-c3ccc(N4CCC(N)C4)cc3)nc12 (centres undefined)', 'Ki', '> 10 µM'),
  ('CC(=O)Nc1cc(N)c(C#N)c(-c2ccc3ccccc3c2)n1', 'Ki', '> 10 µM');

Turning now to a further compound:
*Q* Return reported Ki; argument: C(=N\Nc1nc2ccccc2[nH]1)/c1c[nH]c2ccccc12
*A* > 10 µM
